- Test system: CYP4F5
- Test Details: Cardiotoxicity in Sprague-Dawley rat assessed as increase in CYP4F5 gene expression level administered as cumulative dose of 15 mg/kg, ip divided into 6 injections for 2 weeks followed by compound washout period of 14 days by RT-PCR analysis relative to control
- Assay type: toxicity, organism-based
- Parameters: dose 15 mg/kg, route intraperitoneal
- Conditions Used: heart
Quantity Measured: fold induction at 336 h
Answer with a number only.

Tell me its fold induction at 336 h on CYP4F5: `COc1cccc2c1C(=O)c1c(O)c3c(c(O)c1C2=O)C[C@@](O)(C(=O)CO)C[C@@H]3O[C@H]1C[C@H](N)[C@H](O)[C@H](C)O1` 2

====

- System: CYP1B1
- Test Details: Toxicity in Sprague-Dawley rat assessed as induction of CYP1B1 gene expression in liver administered as cumulative dose of 15 mg/kg, ip divided into 6 injections for 2 weeks followed by compound washout period of 14 days by RT-PCR analysis relative to control
- Assay type: organism-based
- Design: dose 15 mg/kg, route intraperitoneal
Quantity Measured: fold induction at 336 h

Tell me measured fold induction at 336 h for `COc1cccc2c1C(=O)c1c(O)c3c(c(O)c1C2=O)C[C@@](O)(C(=O)CO)C[C@@H]3O[C@H]1C[C@H](N)[C@H](O)[C@H](C)O1` please. 2.5

====

- Test system: CYP450
- Test Details: Induction of CYP450-mediated arachidonic acid metabolism in Sprague-Dawley rat heart microsomes assessed as 11,12-DHET formation administered as cumulative dose of 15 mg/kg, ip divided into 6 injections for 2 weeks followed by compound washout period of 14 days by LC-ESI-MS analysis relative to control
- Assay type: ADME, organism-based
- Design: dose 15 mg/kg, route intraperitoneal
- Conditions Used: probe arachidonic acid
Quantity Measured: fold induction at 336 h
Answer as a number with no unit attached.

Return value of fold induction at 336 h for input `COc1cccc2c1C(=O)c1c(O)c3c(c(O)c1C2=O)C[C@@](O)(C(=O)CO)C[C@@H]3O[C@H]1C[C@H](N)[C@H](O)[C@H](C)O1` , no commentary. 1.9

====

- Test system: CYP4F5
- Test Details: Toxicity in Sprague-Dawley rat assessed as induction of CYP4F5 gene expression in liver administered as cumulative dose of 15 mg/kg, ip divided into 6 injections for 2 weeks followed by compound washout period of 14 days by RT-PCR analysis relative to control
- Type: organism-based
- Parameters: dose 15 mg/kg, route intraperitoneal
Quantity Measured: fold induction at 336 h
The response must contain the number and no unit.

Specify fold induction at 336 h for `COc1cccc2c1C(=O)c1c(O)c3c(c(O)c1C2=O)C[C@@](O)(C(=O)CO)C[C@@H]3O[C@H]1C[C@H](N)[C@H](O)[C@H](C)O1` , system CYP4F5. 1.8

====

- System: CYP1B1
- Test Details: Toxicity in Sprague-Dawley rat assessed as induction of CYP1B1 gene expression in kidney administered as cumulative dose of 15 mg/kg, ip divided into 6 injections for 2 weeks followed by compound washout period of 14 days by RT-PCR analysis relative to control
- Assay type: organism-based
- Design: dose 15 mg/kg, route intraperitoneal
Quantity Measured: fold induction at 336 h
Could you keep your reply to the number by itself?

Please tell me the measured fold induction at 336 h for `COc1cccc2c1C(=O)c1c(O)c3c(c(O)c1C2=O)C[C@@](O)(C(=O)CO)C[C@@H]3O[C@H]1C[C@H](N)[C@H](O)[C@H](C)O1` ; system: CYP1B1. 1.8

====

- Test system: CYP4F5
- Test Details: Toxicity in Sprague-Dawley rat assessed as induction of CYP4F5 gene expression in kidney administered as cumulative dose of 15 mg/kg, ip divided into 6 injections for 2 weeks followed by compound washout period of 14 days by RT-PCR analysis relative to control
- Format: organism-based
- Set-up: dose 15 mg/kg, route intraperitoneal
Quantity Measured: fold induction at 336 h
Give only the figure.

Please give the documented fold induction at 336 h of `COc1cccc2c1C(=O)c1c(O)c3c(c(O)c1C2=O)C[C@@](O)(C(=O)CO)C[C@@H]3O[C@H]1C[C@H](N)[C@H](O)[C@H](C)O1` 1.7

====

- Test system: CYP1A1
- Test Details: Toxicity in Sprague-Dawley rat assessed as induction of CYP1A1 gene expression in liver administered as cumulative dose of 15 mg/kg, ip divided into 6 injections for 2 weeks followed by compound washout period of 14 days by RT-PCR analysis relative to control
- Format: organism-based
- Set-up: dose 15 mg/kg, route intraperitoneal
Quantity Measured: fold induction at 336 h

Using known records, supply fold induction at 336 h for `COc1cccc2c1C(=O)c1c(O)c3c(c(O)c1C2=O)C[C@@](O)(C(=O)CO)C[C@@H]3O[C@H]1C[C@H](N)[C@H](O)[C@H](C)O1` 2.8

====

- System: CYP2E1
- Test Details: Cardiotoxicity in Sprague-Dawley rat assessed as increase in CYP2E1 gene expression level administered as cumulative dose of 15 mg/kg, ip divided into 6 injections for 2 weeks followed by compound washout period of 14 days by RT-PCR analysis relative to control
- Assay type: toxicity, organism-based
- Parameters: dose 15 mg/kg, route intraperitoneal
- Conditions Used: heart
Quantity Measured: fold induction at 336 h
Write the value as a bare number.

Consider the compound `COc1cccc2c1C(=O)c1c(O)c3c(c(O)c1C2=O)C[C@@](O)(C(=O)CO)C[C@@H]3O[C@H]1C[C@H](N)[C@H](O)[C@H](C)O1` . State its measured fold induction at 336 h. 1.8

====

- Tested on: CYP4F1
- Test Details: Cardiotoxicity in Sprague-Dawley rat assessed as increase in CYP4F1 gene expression level administered as cumulative dose of 15 mg/kg, ip divided into 6 injections for 2 weeks followed by compound washout period of 14 days by RT-PCR analysis relative to control
- Assay type: toxicity, organism-based
- Design: dose 15 mg/kg, route intraperitoneal
- Conditions Used: heart
Quantity Measured: fold induction at 336 h
Reply briefly: the number, and no unit.

# return recorded fold induction at 336 h for entry `COc1cccc2c1C(=O)c1c(O)c3c(c(O)c1C2=O)C[C@@](O)(C(=O)CO)C[C@@H]3O[C@H]1C[C@H](N)[C@H](O)[C@H](C)O1` 1.6

====

- Tested on: EPHX2
- Test Details: Cardiotoxicity in Sprague-Dawley rat assessed as increase in EPHX2 gene expression level administered as cumulative dose of 15 mg/kg, ip divided into 6 injections for 2 weeks followed by compound washout period of 14 days by RT-PCR analysis relative to control
- Format: toxicity, organism-based
- Set-up: dose 15 mg/kg, route intraperitoneal
- Conditions Used: heart
Quantity Measured: fold induction at 336 h
Answer as a number with no unit attached.

Please give measured fold induction at 336 h of the following entry: `COc1cccc2c1C(=O)c1c(O)c3c(c(O)c1C2=O)C[C@@](O)(C(=O)CO)C[C@@H]3O[C@H]1C[C@H](N)[C@H](O)[C@H](C)O1` 1.9
